src = paper PMC11073699

Study System: AaegOR8 (Aedes aegypti)
Sequence (Q16MN0 32-422): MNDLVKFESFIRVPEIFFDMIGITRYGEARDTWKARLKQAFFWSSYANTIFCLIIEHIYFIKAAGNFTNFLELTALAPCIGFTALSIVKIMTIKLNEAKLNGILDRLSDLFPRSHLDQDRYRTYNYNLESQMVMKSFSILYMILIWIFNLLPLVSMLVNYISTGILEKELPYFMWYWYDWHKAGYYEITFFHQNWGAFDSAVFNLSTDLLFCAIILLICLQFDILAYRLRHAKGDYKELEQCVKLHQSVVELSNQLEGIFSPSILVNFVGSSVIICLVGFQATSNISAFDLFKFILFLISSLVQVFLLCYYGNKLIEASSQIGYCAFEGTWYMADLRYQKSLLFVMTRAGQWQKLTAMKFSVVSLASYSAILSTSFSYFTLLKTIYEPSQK
Sequence (Q178U6 1-478 partner): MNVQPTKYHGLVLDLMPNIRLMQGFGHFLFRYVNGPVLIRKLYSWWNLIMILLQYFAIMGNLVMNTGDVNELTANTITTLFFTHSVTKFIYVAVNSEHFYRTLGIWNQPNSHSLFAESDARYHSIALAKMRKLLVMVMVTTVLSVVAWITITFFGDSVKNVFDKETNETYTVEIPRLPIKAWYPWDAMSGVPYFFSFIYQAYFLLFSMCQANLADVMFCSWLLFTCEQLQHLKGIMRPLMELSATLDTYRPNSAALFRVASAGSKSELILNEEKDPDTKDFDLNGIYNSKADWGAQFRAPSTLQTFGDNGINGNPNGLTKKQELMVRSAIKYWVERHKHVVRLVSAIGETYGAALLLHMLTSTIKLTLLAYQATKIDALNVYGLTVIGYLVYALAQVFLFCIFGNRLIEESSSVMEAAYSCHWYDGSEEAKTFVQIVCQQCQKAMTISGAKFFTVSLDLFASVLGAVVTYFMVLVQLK
Test Description: Two-electrode voltage clamp of Xenopus laevis oocytes expressing AaegOR8/Orco (blends, unitary compounds, concentration-response)
Type: cell-based
Condition Description: Alcohols 2 unitary compounds; oocyte 3
Readout Type: Raw data (Responses in nA) Oocyte 3
Report the figure in nA without appending any unit label.

1. COc1ccccc1 : 0.0
2. CC/C=C\CCO [cis-3-hexen-1-ol] : 0.0
3. OC1CCCCC1 : 0.0
4. CC1CCCC2(C)CCCCC12O (stereo not drawn) : 0.0
5. C=CC(O)CCCCC (stereo not drawn) : 280.0
6. CCC/C=C/C=O [trans-2-hexenal] : 0.0
7. CCC/C=C/CO [trans-2-hexen-1-ol] : 0.0
8. C[C@@H]1CC[C@H]2C(C)(C)[C@H]3C[C@@]12CC[C@@]3(C)O : 0.0

Could you now look at the following molecule, please?
Ask: Please supply the value of reported Raw data (Responses in nA) Oocyte 3 for the item CCCCCCO
Result: 40.0

###

Study System: AaegOR71 (Aedes aegypti, UniProt A0A3S7SHD4)
Sequence (A0A3S7SHD4 1-415, one chain of several): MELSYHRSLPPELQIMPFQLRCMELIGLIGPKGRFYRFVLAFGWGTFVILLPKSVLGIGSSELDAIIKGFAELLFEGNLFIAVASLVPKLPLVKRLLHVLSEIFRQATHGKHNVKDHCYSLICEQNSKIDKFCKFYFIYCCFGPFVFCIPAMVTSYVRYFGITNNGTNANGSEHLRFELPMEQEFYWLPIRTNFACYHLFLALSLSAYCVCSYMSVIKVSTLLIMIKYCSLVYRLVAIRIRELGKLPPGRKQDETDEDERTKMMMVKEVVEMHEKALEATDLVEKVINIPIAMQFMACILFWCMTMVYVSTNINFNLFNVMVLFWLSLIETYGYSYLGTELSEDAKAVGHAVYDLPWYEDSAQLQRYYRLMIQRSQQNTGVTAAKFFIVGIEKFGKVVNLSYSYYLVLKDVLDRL
Test Description: Two-electrode voltage clamp of Xenopus laevis oocytes expressing AaegOR71/Orco (blends, unitary compounds, concentration-response)
Assay type: cell-based
Condition Description: Indoles 2 unitary compounds; oocyte 3
Classify as follows. Reported Raw Data (Response in nA) Oocyte 3 greater than or equal to 40 nA: YES. Reported Raw Data (Response in nA) Oocyte 3 below: NO.

1. O=C1Nc2ccccc2C1=O : NO

Ask: Textbook exercise: given the entry c1ccc2ncncc2c1 , state whether its Raw Data (Response in nA) Oocyte 3 is greater than or equal to 40 nA.
Result: YES

Ask: Dear colleague, could you confirm whether O=C(O)Cc1c[nH]c2ccccc12 has Raw Data (Response in nA) Oocyte 3 at or above 40 nA?
Result: NO

Ask: For this compound, is measured Raw Data (Response in nA) Oocyte 3 40 nA or higher? O=C1Cc2ccccc2N1
Result: NO

Ask: In plain terms: is recorded Raw Data (Response in nA) Oocyte 3 at least 40 nA for c1ccc2ncccc2c1 ?
Result: YES

Ask: Quick check: does O=Cc1ccnc2ccccc12 have Raw Data (Response in nA) Oocyte 3 greater than or equal to 40 nA?
Result: YES

Ask: Raw Data (Response in nA) Oocyte 3 >= 40 nA for c1ccc2nccnc2c1 ?
Result: YES

Ask: Check if Raw Data (Response in nA) Oocyte 3 >= 40 nA (inclusive). Item: OCc1c[nH]c2ccccc12
Result: NO

Ask: For this compound, is measured Raw Data (Response in nA) Oocyte 3 40 nA or higher? Oc1cccc2[nH]ccc12 [4-Hydroxyindole]
Result: NO

Ask: Determine whether this compound has Raw Data (Response in nA) Oocyte 3 no lower than 40 nA: O=C1CCOc2ccccc21
Result: NO

###

Study System: AaegOR6 (Aedes aegypti, UniProt A0A1S4G757)
Test Description: Two-electrode voltage clamp of Xenopus laevis oocytes expressing AaegOR6/Orco (blends, unitary compounds, concentration-response)
Assay type: cell-based
Condition Description: Indoles 2 unitary compounds; oocyte 2
Readout Type: Raw data (Responses in nA) Oocyte 2
Report only the number, with the unit nA understood.

1) c1ccc2ncncc2c1 : 0.0
2) O=C1Nc2ccccc2C1=O : 0.0
3) Nc1cccc2cnccc12 : 0.0

Ask: Query Raw data (Responses in nA) Oocyte 2 for c1ccc2ncccc2c1
Result: 0.0

Ask: Recall and state the measured Raw data (Responses in nA) Oocyte 2 for O=C(O)Cc1c[nH]c2ccccc12 .
Result: 10.0

Ask: Write down Raw data (Responses in nA) Oocyte 2 measured for item c1ccc2nccnc2c1
Result: 0.0

Ask: Kindly indicate its recorded Raw data (Responses in nA) Oocyte 2. Item: O=Cc1ccnc2ccccc12
Result: 0.0

Ask: State its Raw data (Responses in nA) Oocyte 2: O=C1Cc2ccccc2N1
Result: 0.0

Ask: Determine from records and report Raw data (Responses in nA) Oocyte 2 for OCc1c[nH]c2ccccc12
Result: 0.0

Ask: Give Raw data (Responses in nA) Oocyte 2 for Oc1cccc2[nH]ccc12 [4-Hydroxyindole]
Result: 0.0

Ask: Report Raw data (Responses in nA) Oocyte 2, nothing else, for this compound: O=C1CCOc2ccccc21
Result: 50.0

###

Study System: AaegOR6 (Aedes aegypti)
Sequence (A0A1S4G757 1-398): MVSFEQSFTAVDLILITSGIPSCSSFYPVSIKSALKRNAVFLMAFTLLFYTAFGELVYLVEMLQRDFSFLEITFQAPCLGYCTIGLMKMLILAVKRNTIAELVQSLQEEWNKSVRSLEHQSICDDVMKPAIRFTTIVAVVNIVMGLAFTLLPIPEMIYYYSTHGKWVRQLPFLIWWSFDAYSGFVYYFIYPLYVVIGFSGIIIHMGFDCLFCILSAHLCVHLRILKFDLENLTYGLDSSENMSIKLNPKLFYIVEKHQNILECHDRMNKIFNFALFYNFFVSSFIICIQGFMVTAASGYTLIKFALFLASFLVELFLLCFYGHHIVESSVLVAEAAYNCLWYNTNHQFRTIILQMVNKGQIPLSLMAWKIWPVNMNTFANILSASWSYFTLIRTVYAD
Sequence (Q178U6 1-478 partner): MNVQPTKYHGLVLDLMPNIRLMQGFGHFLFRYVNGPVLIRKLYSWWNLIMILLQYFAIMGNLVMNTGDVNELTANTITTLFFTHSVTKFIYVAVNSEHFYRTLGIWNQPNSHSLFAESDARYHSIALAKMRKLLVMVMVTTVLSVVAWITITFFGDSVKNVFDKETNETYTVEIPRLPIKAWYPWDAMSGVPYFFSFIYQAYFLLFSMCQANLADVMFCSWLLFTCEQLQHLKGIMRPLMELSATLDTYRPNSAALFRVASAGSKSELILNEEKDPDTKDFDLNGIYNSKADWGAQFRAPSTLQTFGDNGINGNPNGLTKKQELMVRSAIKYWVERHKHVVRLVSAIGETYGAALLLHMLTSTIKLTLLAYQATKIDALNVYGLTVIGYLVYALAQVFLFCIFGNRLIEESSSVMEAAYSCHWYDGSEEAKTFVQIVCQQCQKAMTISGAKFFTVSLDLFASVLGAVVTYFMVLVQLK
Test Description: Two-electrode voltage clamp of Xenopus laevis oocytes expressing AaegOR6/Orco (blends, unitary compounds, concentration-response)
Type: cell-based
Condition Description: Indoles 2 unitary compounds; oocyte 8
Readout Type: Raw data (Responses in nA) Oocyte 8
Record the value in nA, omitting the unit from your answer.

The cases that follow already have their Raw data (Responses in nA) Oocyte 8 on record.
1) c1ccc2ncncc2c1 [Quinazoline] : 0.0
2) OCc1c[nH]c2ccccc12 [3-Indolemethanol] : 0.0
3) c1ccc2ncccc2c1 [Quinoline] : 0.0

Turning to the following compound.
Ask: Provide measured Raw data (Responses in nA) Oocyte 8 on AaegOR6 (Aedes aegypti) for O=C1Nc2ccccc2C1=O [Isatin] please.
Result: 0.0

###

Study System: AaegOR8 (Aedes aegypti)
Test Description: Two-electrode voltage clamp of Xenopus laevis oocytes expressing AaegOR8/Orco (blends, unitary compounds, concentration-response)
Assay type: cell-based
Condition Description: Alcohols 2 unitary compounds; oocyte 8
// values below are reported Raw data (Responses in nA) Oocyte 8
# unit: nA | format: bare number

Answered cases to consult:
1) CCCCCCO : 10.0
2) C[C@@H]1CC[C@H]2C(C)(C)[C@H]3C[C@@]12CC[C@@]3(C)O : 0.0
3) CC/C=C\CCO [cis-3-hexen-1-ol] : 0.0
4) OC1CCCCC1 : 0.0
5) CCC/C=C/C=O [trans-2-hexenal] : 0.0
6) C=CC(O)CCCCC (stereo not drawn) : 240.0
7) CC1CCCC2(C)CCCCC12O (stereo not drawn) : 0.0
8) CCC/C=C/CO [trans-2-hexen-1-ol] : 0.0

Ask: Tell me Raw data (Responses in nA) Oocyte 8 reported for COc1ccccc1
Result: 0.0
